This collection of values is drawn from paper PMC11726670.

# assay name: in vitro
# condition set: PAMPA, pH 7.4
# Protocol: Stock solutions of the controls and of 1–9 were prepared in DMSO at a concentration of 10 mM, then they were further diluted with PBS (pH 7.4) to a final concentration of 10 μM. […] Samples were centrifuged for 20 min and compound concentrations were determined by LC/MS/MS (LC system: Shimadzu; Triple Quad).
reported endpoint: Papp at 16 h, 10 μM (×10⁻⁶ cm/s)

>>> numeric_readout("CN(Cc1cnc2nc(N)nc(N)c2n1)c1ccc(C(=O)N[C@@H](CCC(=O)O)C(=O)O)cc1 [Methotrexate, reference compound]")
0.00427

----------
# assay name: chromatographic Log D at pH 7.5
# Assay type: physicochemical
# condition set: pH 7.5, chromatographic lipophilicity, pH 7.5; read-out: LogD (pH 7.5)
reported endpoint: chromatographic logD

>>> numeric_readout("Cc1ncsc1-c1ccc(CNC(=O)[C@@H]2C[C@@H](O)CN2C(=O)[C@@H](NC(=O)COCc2cn(CCOc3cnc4c(C5CCN(C(=O)c6ccc(OC(F)(F)F)cc6)CC5)ncnc4c3)nn2)C(C)(C)C)cc1 [PROTAC 4]")
2.7
>>> numeric_readout("Cc1ncsc1-c1ccc(CNC(=O)[C@@H]2C[C@@H](O)CN2C(=O)[C@@H](NC(=O)CCCCCCCCOc2cnc3c(C4CCN(C(=O)c5ccc(OC(F)(F)F)cc5)CC4)ncnc3c2)C(C)(C)C)cc1 [PROTAC 1]")
3.8
>>> numeric_readout("Cc1ncsc1-c1ccc(CNC(=O)[C@@H]2C[C@@H](O)CN2C(=O)[C@@H](NC(=O)CCOCCNC(=O)COc2cnc3c(C4CCN(C(=O)c5ccc(OC(F)(F)F)cc5)CC4)ncnc3c2)C(C)(C)C)cc1 [PROTAC 3]")
2.7
